Measured melting point, listed per entry.
QUANTITY: melting point

{"COMPOUND": "CN(C(=O)c1ccc2nonc2c1)C1CC=C(F)CC1 (stereo not given)", "OBSERVED": "117 to 118 °C"}
{"COMPOUND": "Nc1ncc(C2OC(CO)C(O)C2O)c(=O)[nH]1 (stereo not given)", "OBSERVED": "216 to 217 °C"}
{"COMPOUND": "NC(=O)CNC(=O)c1cccc(-c2ccc3c(c2)N(c2ccc(Cl)cc2Cl)CC3)c1", "OBSERVED": "184 to 186 °C"}
{"COMPOUND": "CC(=O)Nc1ccc2c(c1)OCCN2C(C)=O", "OBSERVED": "150 to 154 °C"}
{"COMPOUND": "N#Cc1ccc(N2CCc3[nH]c4c(cnc5cc(Cl)ccc54)c3C2)cc1", "OBSERVED": "> 275 °C"}

Attribution: a melting point compilation (Tetko et al.; mined from patent text by program, amines drawn as free bases though some values may be those of a salt)
